Quick list: remaining at 10 min per entry.
# ASSAY SUMMARY: Metabolic stability in rat liver microsomes assessed as parent compound remaining at […] after 10 mins
# Format: ADME, microsome
# STUDY CONDITIONS: read-out: Stability
Give just the numeric value; % need not be written.

Examples from the recorded data:
COMPOUND: Cc1nc(-c2cccc3ccccc23)sc1C(=O)N1CCCC(O)CC1 (centres undefined)
remaining at 10 min, %: 8
--
COMPOUND: Cc1oc(-c2cccc3ccccc23)nc1C(=O)N1CCC(CO)CC1
remaining at 10 min, %: 16
--
COMPOUND: Cn1cc(-c2cccc3ccccc23)cc1C(=O)N1CCC(CO)CC1
remaining at 10 min, %: 57

Next item in the queue.
### Prompt Look up remaining at 10 min: "Cc1nc(-c2cccc3ccccc23)sc1C(=O)N(CCO)C(C)C"
### Response 7
